Target: T1, Human CD3eg linker (human)
T1 construct: Single-chain construct; also called recombinant human CD3
T1 chain: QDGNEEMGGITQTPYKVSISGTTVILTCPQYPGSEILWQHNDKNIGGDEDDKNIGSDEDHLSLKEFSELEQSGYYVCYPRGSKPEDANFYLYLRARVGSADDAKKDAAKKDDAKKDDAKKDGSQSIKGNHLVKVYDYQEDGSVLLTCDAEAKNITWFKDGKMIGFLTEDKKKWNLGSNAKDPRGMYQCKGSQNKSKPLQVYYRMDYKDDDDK
Test: SPR; fold vs parent H183/L072
Please go through the items and note down their fold change of affinity.
Numbers only, in fold.

binder: H183/L072 VL H34D (antibody, name in Kabat numbering, V domains shown) VH: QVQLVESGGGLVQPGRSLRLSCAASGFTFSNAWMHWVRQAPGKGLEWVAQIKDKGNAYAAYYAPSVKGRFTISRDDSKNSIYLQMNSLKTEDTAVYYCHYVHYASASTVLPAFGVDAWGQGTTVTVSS VL: DIVMTQSPLSLPVTPGEPASISCQASQELVHMNRNTYLDWYQQKPGQAPRLLIYKVSNRFPGVPDRFSGSGSGTDFTLKISRVEAEDVGVYYCAQGTSVPFTFGQGTKLEIK
outcome-measure: fold change of affinity
quantitative-result: 0

binder: H183/L072 VL N28K (antibody, name in Kabat numbering, V domains shown) VH: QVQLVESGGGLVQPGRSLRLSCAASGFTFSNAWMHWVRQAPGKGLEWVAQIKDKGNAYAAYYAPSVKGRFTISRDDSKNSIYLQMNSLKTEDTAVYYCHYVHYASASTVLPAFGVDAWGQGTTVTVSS VL: DIVMTQSPLSLPVTPGEPASISCQASQELVHMKRNTYLHWYQQKPGQAPRLLIYKVSNRFPGVPDRFSGSGSGTDFTLKISRVEAEDVGVYYCAQGTSVPFTFGQGTKLEIK
outcome-measure: fold change of affinity
quantitative-result: 0

**Query** Returns the measured fold change of affinity for the input binder. Input: H183/L072 VL V94E (antibody, name in Kabat numbering, V domains shown) VH: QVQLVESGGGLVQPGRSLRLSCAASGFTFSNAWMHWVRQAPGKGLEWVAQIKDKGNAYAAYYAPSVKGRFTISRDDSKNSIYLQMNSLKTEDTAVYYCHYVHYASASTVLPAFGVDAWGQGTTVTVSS VL: DIVMTQSPLSLPVTPGEPASISCQASQELVHMNRNTYLHWYQQKPGQAPRLLIYKVSNRFPGVPDRFSGSGSGTDFTLKISRVEAEDVGVYYCAQGTSEPFTFGQGTKLEIK
**Result** 0.4
